Target: AGO2 T357M (Homo sapiens, UniProt Q9UKV8 1-859, T357M;S387D;S824A;S828D;S831D;S834A)
Sequence (Q9UKV8 whole entry T357M/S387D/S824A/S828D/S831D/S834A): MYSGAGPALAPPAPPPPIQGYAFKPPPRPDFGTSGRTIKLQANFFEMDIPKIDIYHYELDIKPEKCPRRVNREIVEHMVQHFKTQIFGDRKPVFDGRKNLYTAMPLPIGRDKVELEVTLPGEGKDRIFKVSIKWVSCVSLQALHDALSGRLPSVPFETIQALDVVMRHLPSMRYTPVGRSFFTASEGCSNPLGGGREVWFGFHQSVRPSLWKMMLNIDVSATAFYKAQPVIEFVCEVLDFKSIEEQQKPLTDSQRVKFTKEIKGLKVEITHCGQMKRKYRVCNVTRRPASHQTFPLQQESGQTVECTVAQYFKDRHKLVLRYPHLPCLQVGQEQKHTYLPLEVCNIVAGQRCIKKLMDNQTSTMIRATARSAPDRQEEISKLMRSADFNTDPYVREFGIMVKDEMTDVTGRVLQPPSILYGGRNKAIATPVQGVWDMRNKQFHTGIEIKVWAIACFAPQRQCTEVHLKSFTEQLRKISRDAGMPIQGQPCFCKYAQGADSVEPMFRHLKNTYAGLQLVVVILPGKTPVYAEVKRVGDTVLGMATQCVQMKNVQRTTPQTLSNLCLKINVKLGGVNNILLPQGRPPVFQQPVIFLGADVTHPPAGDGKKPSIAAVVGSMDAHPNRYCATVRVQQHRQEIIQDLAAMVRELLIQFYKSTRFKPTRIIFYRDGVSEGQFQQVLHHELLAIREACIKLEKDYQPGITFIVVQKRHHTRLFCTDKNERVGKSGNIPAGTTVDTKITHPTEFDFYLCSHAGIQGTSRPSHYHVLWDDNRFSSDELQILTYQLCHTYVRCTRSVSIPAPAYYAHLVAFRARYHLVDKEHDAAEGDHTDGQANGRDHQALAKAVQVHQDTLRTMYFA
Assay: RNA Bind-n-Seq (nitrocellulose filter binding and sequencing); miR-122 guide loaded in AGO2; 60 min incubation; 30 mM Tris pH 8.0, 100 mM potassium acetate, 2 mM magnesium acetate, 0.5 mM TCEP, 0.005% NP-40, 0.01 mg/ml yeast tRNA; 3 nM AGO2-miR-122, 100 nM RNA library; 60; high values mean tight binding
Details: protein: recombinant; tags: His6 (N-terminal, pFastBac HTA)

binder: ACGTTCTA (ssRNA, constant regions annealed to DNA blockers; guide miR-122 5' phosphate) RNA 1: GAGUUCUACAGUCCGACGAUCCCAACACGUUCUACACCUGGAAUUCUCGGGUGCCAA RNA 2: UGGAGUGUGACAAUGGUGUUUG DNA 1: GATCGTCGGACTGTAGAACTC DNA 2: TTGGCACCCGAGAATTCCA
binding signal: 0.53 fold enrichment over input
--
binder: ACGCTCCG (ssRNA, constant regions annealed to DNA blockers; guide miR-122 5' phosphate) RNA 1: GAGUUCUACAGUCCGACGAUCCCAACACGCUCCGCACCUGGAAUUCUCGGGUGCCAA RNA 2: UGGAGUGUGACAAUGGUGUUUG DNA 1: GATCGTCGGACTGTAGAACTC DNA 2: TTGGCACCCGAGAATTCCA
binding signal: 1.98 fold enrichment over input
--
binder: GCATCTCA (ssRNA, constant regions annealed to DNA blockers; guide miR-122 5' phosphate) RNA 1: GAGUUCUACAGUCCGACGAUCCCAACGCAUCUCACACCUGGAAUUCUCGGGUGCCAA RNA 2: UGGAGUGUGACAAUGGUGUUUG DNA 1: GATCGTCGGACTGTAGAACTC DNA 2: TTGGCACCCGAGAATTCCA
binding signal: 0.605 fold enrichment over input
--
binder: GCGTTCCG (ssRNA, constant regions annealed to DNA blockers; guide miR-122 5' phosphate) RNA 1: GAGUUCUACAGUCCGACGAUCCCAACGCGUUCCGCACCUGGAAUUCUCGGGUGCCAA RNA 2: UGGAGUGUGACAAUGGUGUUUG DNA 1: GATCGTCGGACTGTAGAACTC DNA 2: TTGGCACCCGAGAATTCCA
binding signal: 0.583 fold enrichment over input
